biological target: tyrosinase; assay: spectrophotometric tyrosinase inhibition assay with L-DOPA as substrate; type: biochemical, Bacillus subtilis NCTC 10400; conditions: L-DOPA substrate, unit inferred, read-out: IC50 (unit inferred)
Readings of pIC50 for the listed molecules
Worth noting: pIC50 values are minus log10 of concentrations stated in mol/L.

{"molecule": "COc1ccc(-n2c(SCC(=O)Oc3ccc4c(C)cc(=O)oc4c3)nnc2-c2cc3cccc(OC)c3o2)cc1 [Compound 17c]", "pIC50": 4.89}

Data request: What pIC50 value was documented for this molecule, Cc1cc(=O)oc2cc(OC(=O)CSc3nnc(-c4cc5cc(Cl)ccc5o4)n3-c3ccccc3)ccc12 [Compound 17f] ?
Data returned: 5.50

Data request: Same lookup for COc1cccc2cc(-c3nnc(SCC(=O)Oc4ccc5c(C)cc(=O)oc5c4)n3-c3ccccc3)oc12 [Compound 17b] , please.
Data returned: 4.85
